assay: Solubility assay (kinetic solubility, PBS pH 7)
Assay type: physicochemical
conditions.used: pH 7, aqueous buffer, kinetic from dmso stock, pH 7, PBS; read-out: Solubility
Positions of bridges follow the written chain, without caps; N, C: chain ends. Non-standard residues stand in square brackets, D forms with d. Residues, ends and D or L forms follow the SMILES beside them. Lys(N3) = [N-]=[N+]=NCCCC[C@H](N)C(=O)O; R8 = C=CCCCCCC[C@@](C)(N)C(=O)O; Cba = N[C@@H](CC1CCC1)C(=O)O; S5 = C=CCCC[C@](C)(N)C(=O)O; βAla = NCCC(=O)O
I would appreciate it if you labelled entries YES when solubility kinetic is 90 µM or higher, otherwise NO.

compound: CC(C)C[C@@H]1NC(=O)[C@H](C)NC(=O)[C@H](Cc2c[nH]c3ccccc23)NC(=O)[C@H](Cc2ccc(O)cc2)NC(=O)[C@H](CCC(=O)O)NC(=O)[C@](C)(NC(=O)[C@H](Cc2ccccc2)NC(=O)[C@H](CO)NC(=O)[C@@H](NC(=O)CNC(=O)[C@H](CO)NC(=O)CNC(=O)[C@@H](N)CCCCN=[N+]=[N-])[C@@H](C)O)CCCCCCC=CCCC[C@@](C)(C(=O)N[C@@H](CCC(=O)O)C(N)=O)NC(=O)[C@H](CC(C)C)NC1=O [MP-011]
category: NO
//
compound: CC(=O)N[C@@H](CCCCN=[N+]=[N-])C(=O)NCCC(=O)N[C@@H](CC(C)C)C(=O)N[C@H](C(=O)N[C@@H](Cc1ccccc1)C(=O)N[C@]1(C)CCCCC#CC#CCCC[C@@](C)(C(=O)N[C@@H](CO)C(=O)N[C@@H](C)C(=O)N[C@@H](C)C(N)=O)NC(=O)[C@H](CC2CCC2)NC(=O)[C@H](CCC(N)=O)NC(=O)[C@H](C)NC(=O)[C@H](Cc2c[nH]c3ccccc23)NC(=O)[C@H](Cc2ccc(O)cc2)NC(=O)[C@H](CCC(=O)O)NC1=O)[C@@H](C)O [MP-806]
category: NO
//
compound: CC(=O)N[C@@H](CCCCN=[N+]=[N-])C(=O)NCCC(=O)NCC(=O)N[C@H](C(=O)N[C@@H](Cc1ccccc1)C(=O)N[C@]1(C)CCCCCCC=CCCC[C@@](C)(C(=O)N[C@@H](CO)C(=O)N[C@@H](C)C(=O)N[C@@H](C)C(N)=O)NC(=O)[C@H](CC2CCC2)NC(=O)[C@H](CCC(N)=O)NC(=O)CNC(=O)[C@H](Cc2c[nH]c3ccccc23)NC(=O)[C@H](Cc2ccc(O)cc2)NC(=O)CNC1=O)[C@@H](C)O [MP-692] (Ac-[Lys(N3)][βAla]GTF[R8]GYWGQ[Cba][S5]SAA-NH2; staple 6-13)
category: NO
//
compound: CC(=O)N[C@@H](CCCCN=[N+]=[N-])C(=O)NCCC(=O)N[C@H](C(=O)N[C@@H](CO)C(=O)N[C@@H](Cc1ccccc1)C(=O)N[C@]1(C)CCCCCCC=CCCC[C@@](C)(C(=O)N[C@@H](CO)C(=O)N[C@@H](C)C(=O)N[C@@H](C)C(N)=O)NC(=O)[C@H](CC(C)C)NC(=O)[C@H](CC(C)C)NC(=O)[C@H](C)NC(=O)[C@H](Cc2c[nH]c3ccccc23)NC(=O)[C@H](Cc2ccc(O)cc2)NC(=O)[C@H](CCC(=O)O)NC1=O)[C@@H](C)O [MP-686]
category: NO
//
compound: CC(=O)N[C@@H](CCCCN=[N+]=[N-])C(=O)NCCC(=O)N[C@@H](CC(C)C)C(=O)N[C@H](C(=O)N[C@@H](Cc1ccccc1)C(=O)N[C@]1(C)CCCCCCC=CCCC[C@@](C)(C(=O)N[C@@H](CO)C(=O)N[C@@H](C)C(=O)N[C@@H](C)C(N)=O)NC(=O)[C@H](CC2CCC2)NC(=O)[C@H](CCC(N)=O)NC(=O)[C@H](CCC(=O)O)NC(=O)[C@H](Cc2c[nH]c3ccccc23)NC(=O)[C@H](Cc2ccc(O)cc2)NC(=O)[C@H](CCC(=O)O)NC1=O)[C@@H](C)O [MP-180]
category: YES
//
compound: CC(=O)N[C@@H](CC(C)C)C(=O)N[C@H](C(=O)N[C@@H](Cc1ccccc1)C(=O)N[C@]1(C)CCCCCCC=CCCC[C@@](C)(C(=O)N[C@@H](CO)C(=O)N[C@@H](C)C(=O)N[C@@H](C)C(N)=O)NC(=O)[C@H](CC(C)C)NC(=O)[C@H](CCC(N)=O)NC(=O)[C@H](C)NC(=O)[C@H](Cc2c[nH]c3ccccc23)NC(=O)[C@H](Cc2ccc(O)cc2)NC(=O)[C@H](CCC(=O)O)NC1=O)[C@@H](C)O [MP-154]
category: YES
//
compound: CC(=O)N[C@@H](CC(C)C)C(=O)N[C@H](C(=O)N[C@@H](Cc1ccccc1)C(=O)NC(C)(C)C(=O)N[C@@H](CCC(=O)O)C(=O)N[C@@H](Cc1ccc(O)cc1)C(=O)N[C@@H](Cc1c[nH]c2ccccc12)C(=O)N[C@@H](CCC(N)=O)C(=O)N[C@H](CC(C)C)C(=O)N[C@@H](CC1CCC1)C(=O)NC(C)(C)C(=O)N[C@@H](CO)C(=O)N[C@@H](C)C(=O)N[C@@H](C)C(N)=O)[C@@H](C)O [MP-788]
category: NO
